- target_or_system: SF-PhoQc (Shigella flexneri, UniProt Q83RR1)
- Construct: The amplified DNA segment encodes PhoQ HK amino acids 251–486; made in house; host or cells: E. coli JM109
- Sequence (Q83RR1 251-486): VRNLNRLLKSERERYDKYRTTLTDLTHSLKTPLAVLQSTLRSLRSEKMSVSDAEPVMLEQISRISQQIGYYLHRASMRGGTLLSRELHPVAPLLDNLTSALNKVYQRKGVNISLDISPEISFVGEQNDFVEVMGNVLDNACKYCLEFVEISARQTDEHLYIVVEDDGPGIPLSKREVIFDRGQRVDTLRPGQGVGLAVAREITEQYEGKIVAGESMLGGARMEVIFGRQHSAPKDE
- protocol_description: Luminescent Kinase Assay of SF-PhoQc
- Type: biochemical, S. flexneri 2a 301
assay_readout: IC50 (µM)
Only the number, expressed in µM, is required.

Would you please look over these solved cases?
O=C(O)c1cc(-c2ccc(-c3ccccc3Cl)o2)nc2ccc3ccccc3c12	27.2
O=C(O)c1ccc(Cl)c(-c2ccc(/C=N/NC(=O)c3ccc(Br)cc3)o2)c1	7.99
CCOc1ccccc1-c1cc(C(=O)N/N=C/c2ccc(OCc3ccccc3)c(OC)c2)c2ccccc2n1	48.9

We next turn to a different compound, shown below.
Asked: I am curious: what IC50 value has been reported for O=C(Nc1ccc(C2(c3cccc(NC(=O)c4cccc5ccccc45)c3)c3ccccc3C(=O)c3ccccc32)cc1)c1ccc2ccccc2c1 ?
Given back: 69.4

Taken from paper PMC3154276.
